Recorded values, source ChEMBL document CHEMBL6120978.

# Tested on: Staphylococcus aureus
# ASSAY TEXT: Antimicrobial activity against Staphylococcus aureus ATCC 29213 incubated for 18 hrs by twofold microdilution method
# Type: functional
ASSAY METRIC: MIC (µg/mL)

INSERT INTO measurements (structure_as_smiles, target_desc, numeric_value) VALUES
  ('CCCC[P+](CCCC)(CCCC)CCCCOC(=O)[C@H](CC)[C@H]1CC[C@H](C)[C@H]([C@@H](C)[C@H](O)[C@H](C)C(=O)[C@H](CC)[C@H]2O[C@]3(C=C[C@@H](O)[C@]4(CC[C@@](C)([C@H]5CC[C@](O)(CC)[C@H](C)O5)O4)O3)[C@H](C)C[C@@H]2C)O1.[Br-]', 'Staphylococcus aureus', 2),
  ('CC[C@@H](C(=O)[C@@H](C)[C@@H](O)[C@H](C)[C@@H]1O[C@@H]([C@@H](CC)C(=O)OCCCCCC[P+](c2ccccc2)(c2ccccc2)c2ccccc2)CC[C@@H]1C)[C@H]1O[C@]2(C=C[C@@H](O)[C@]3(CC[C@@](C)([C@H]4CC[C@](O)(CC)[C@H](C)O4)O3)O2)[C@H](C)C[C@@H]1C.[Br-]', 'Staphylococcus aureus', 2);

---

# Tested on: MDA-MB-231
# ASSAY TEXT: Induction of apoptosis in human MDA-MB-231 cells assessed as viable cells at IC50 incubated for 72 hrs by Annexin V-FITC staining based flow cytometry analysis (reference value: 91.53 %)
# Assay type: functional
Entries and their measured Activity follow.
ASSAY METRIC: Activity (%)

INSERT INTO measurements (molecule, assay_metric, numeric_value) VALUES
  ('CC[C@@H](C(=O)[C@@H](C)[C@@H](O)[C@H](C)[C@@H]1O[C@@H]([C@@H](CC)C(=O)OCc2ccccc2)CC[C@@H]1C)[C@H]1O[C@]2(C=C[C@@H](O)[C@]3(CC[C@@](C)([C@H]4CC[C@](O)(CC)[C@H](C)O4)O3)O2)[C@H](C)C[C@@H]1C', 'Activity', 83.92),
  ('CC[C@@H](C(=O)[C@@H](C)[C@@H](O)[C@H](C)[C@@H]1O[C@@H]([C@@H](CC)C(=O)O)CC[C@@H]1C)[C@H]1O[C@]2(C=C[C@@H](O)[C@]3(CC[C@@](C)([C@H]4CC[C@](O)(CC)[C@H](C)O4)O3)O2)[C@H](C)C[C@@H]1C [SALINOMYCIN]', 'Activity', 76.94),
  ('CCCC[P+](CCCC)(CCCC)CCCCOC(=O)[C@H](CC)[C@H]1CC[C@H](C)[C@H]([C@@H](C)[C@H](O)[C@H](C)C(=O)[C@H](CC)[C@H]2O[C@]3(C=C[C@@H](O)[C@]4(CC[C@@](C)([C@H]5CC[C@](O)(CC)[C@H](C)O5)O4)O3)[C@H](C)C[C@@H]2C)O1.[Br-]', 'Activity', 33.55),
  ('CC[C@@H](C(=O)[C@@H](C)[C@@H](O)[C@H](C)[C@@H]1O[C@@H]([C@@H](CC)C(=O)OCCCC[P+](c2ccccc2)(c2ccccc2)c2ccccc2)CC[C@@H]1C)[C@H]1O[C@]2(C=C[C@@H](O)[C@]3(CC[C@@](C)([C@H]4CC[C@](O)(CC)[C@H](C)O4)O3)O2)[C@H](C)C[C@@H]1C.[Br-]', 'Activity', 51.49);

---

# ASSAY TEXT: Cytotoxicity against human HaCaT cells incubated for 72 hrs by MTT assay
# Assay type: toxicity, cell-based
ASSAY METRIC: IC50 at 72 h (nM)

INSERT INTO measurements (structure_as_smiles, u, numeric_value) VALUES
  ('CCCC[P+](CCCC)(CCCC)CCCCCCOC(=O)[C@H](CC)[C@H]1CC[C@H](C)[C@H]([C@@H](C)[C@H](O)[C@H](C)C(=O)[C@H](CC)[C@H]2O[C@]3(C=C[C@@H](O)[C@]4(CC[C@@](C)([C@H]5CC[C@](O)(CC)[C@H](C)O5)O4)O3)[C@H](C)C[C@@H]2C)O1.[Br-]', 'nM', 620),
  ('CC[C@@H](C(=O)[C@@H](C)[C@@H](O)[C@H](C)[C@@H]1O[C@@H]([C@@H](CC)C(=O)OCCCCCC[P+](c2ccc(OC)cc2)(c2ccc(OC)cc2)c2ccc(OC)cc2)CC[C@@H]1C)[C@H]1O[C@]2(C=C[C@@H](O)[C@]3(CC[C@@](C)([C@H]4CC[C@](O)(CC)[C@H](C)O4)O3)O2)[C@H](C)C[C@@H]1C.[Br-]', 'nM', 630),
  ('CC[C@@H](C(=O)[C@@H](C)[C@@H](O)[C@H](C)[C@@H]1O[C@@H]([C@@H](CC)C(=O)OCCCC[P+](c2ccccc2OC)(c2ccccc2OC)c2ccccc2OC)CC[C@@H]1C)[C@H]1O[C@]2(C=C[C@@H](O)[C@]3(CC[C@@](C)([C@H]4CC[C@](O)(CC)[C@H](C)O4)O3)O2)[C@H](C)C[C@@H]1C.[Br-]', 'nM', 940),
  ('CC[C@@H](C(=O)[C@@H](C)[C@@H](O)[C@H](C)[C@@H]1O[C@@H]([C@@H](CC)C(=O)OCCCCCC[P+](c2ccccc2)(c2ccccc2)c2ccccc2)CC[C@@H]1C)[C@H]1O[C@]2(C=C[C@@H](O)[C@]3(CC[C@@](C)([C@H]4CC[C@](O)(CC)[C@H](C)O4)O3)O2)[C@H](C)C[C@@H]1C.[Br-]', 'nM', 780),
  ('CC[C@@H](C(=O)[C@@H](C)[C@@H](O)[C@H](C)[C@@H]1O[C@@H]([C@@H](CC)C(=O)OCCCC[P+](c2ccccc2)(c2ccccc2)c2ccc(N(C)C)cc2)CC[C@@H]1C)[C@H]1O[C@]2(C=C[C@@H](O)[C@]3(CC[C@@](C)([C@H]4CC[C@](O)(CC)[C@H](C)O4)O3)O2)[C@H](C)C[C@@H]1C.[Br-]', 'nM', 1280);

---

Collected IC50 at 72 h values appear next to each entry.
# ASSAY TEXT: Cytotoxicity against human HaCaT cells incubated for 72 hrs by MTT assay
# Type: toxicity, cell-based
ASSAY METRIC: IC50 at 72 h (nM)

INSERT INTO assay_data (structure_as_smiles, numeric_value) VALUES
  ('CC[C@@H](C(=O)[C@@H](C)[C@@H](O)[C@H](C)[C@@H]1O[C@@H]([C@@H](CC)C(=O)OCCCC[P+](c2ccc(C)cc2)(c2ccc(C)cc2)c2ccc(C)cc2)CC[C@@H]1C)[C@H]1O[C@]2(C=C[C@@H](O)[C@]3(CC[C@@](C)([C@H]4CC[C@](O)(CC)[C@H](C)O4)O3)O2)[C@H](C)C[C@@H]1C.[Br-]', 1020),
  ('CC[C@@H](C(=O)[C@@H](C)[C@@H](O)[C@H](C)[C@@H]1O[C@@H]([C@@H](CC)C(=O)O)CC[C@@H]1C)[C@H]1O[C@]2(C=C[C@@H](O)[C@]3(CC[C@@](C)([C@H]4CC[C@](O)(CC)[C@H](C)O4)O3)O2)[C@H](C)C[C@@H]1C', 800),
  ('CC[C@@H](C(=O)[C@@H](C)[C@@H](O)[C@H](C)[C@@H]1O[C@@H]([C@@H](CC)C(=O)OCc2ccccc2)CC[C@@H]1C)[C@H]1O[C@]2(C=C[C@@H](O)[C@]3(CC[C@@](C)([C@H]4CC[C@](O)(CC)[C@H](C)O4)O3)O2)[C@H](C)C[C@@H]1C', 8000);

---

# ASSAY TEXT: Selectivity index, ratio of IC50 for cytotoxicity against chinese hamster V79 cells to IC50 for cytotoxicity against human PC-3 cells
# Format: toxicity, cell-based
# RUN PARAMETERS: V79 cells versus PC-3 cells, read-out: Ratio IC50
ASSAY METRIC: selectivity ratio

INSERT INTO results (structure_as_smiles, assay_metric, numeric_value) VALUES
  ('CC[C@@H](C(=O)[C@@H](C)[C@@H](O)[C@H](C)[C@@H]1O[C@@H]([C@@H](CC)C(=O)OCCCC[P+](c2ccc(OC)cc2)(c2ccc(OC)cc2)c2ccc(OC)cc2)CC[C@@H]1C)[C@H]1O[C@]2(C=C[C@@H](O)[C@]3(CC[C@@](C)([C@H]4CC[C@](O)(CC)[C@H](C)O4)O3)O2)[C@H](C)C[C@@H]1C.[Br-]', 'selectivity ratio', 0.3),
  ('CC[C@@H](C(=O)[C@@H](C)[C@@H](O)[C@H](C)[C@@H]1O[C@@H]([C@@H](CC)C(=O)OCCCCCC[P+](c2ccccc2)(c2ccccc2)c2ccc(N(C)C)cc2)CC[C@@H]1C)[C@H]1O[C@]2(C=C[C@@H](O)[C@]3(CC[C@@](C)([C@H]4CC[C@](O)(CC)[C@H](C)O4)O3)O2)[C@H](C)C[C@@H]1C.[Br-]', 'selectivity ratio', 0.4),
  ('CCCC[P+](CCCC)(CCCC)CCCCCCOC(=O)[C@H](CC)[C@H]1CC[C@H](C)[C@H]([C@@H](C)[C@H](O)[C@H](C)C(=O)[C@H](CC)[C@H]2O[C@]3(C=C[C@@H](O)[C@]4(CC[C@@](C)([C@H]5CC[C@](O)(CC)[C@H](C)O5)O4)O3)[C@H](C)C[C@@H]2C)O1.[Br-]', 'selectivity ratio', 0.2);
